The compounds listed here are annotated with their growth inhibition.
- Procedure Text: NCI Yeast Anticancer Drug Screen. Data for the bub3 strain (AID 167)
- Condition Label: S. cerevisiae bub3 mutant strain, at 50.0 µM, hits give high values
Compounds without any hit were thinned out: in the full panel of roughly 79,000, 15% have a hit.
Value Type: growth inhibition (%)

- Compound: "CN(C)c1ccc(C(=N)c2ccc(N(C)C)cc2)cc1"
  Value Type: "growth inhibition"
  Unit Of Measure: "%"
  Value Reported: 5.45
- Compound: "CC(=O)NC1=NN(C(C)=O)C(C)(c2ccccc2)S1=O (centres undefined)"
  Value Type: "growth inhibition"
  Unit Of Measure: "%"
  Value Reported: -3.95
- Compound: "CCSc1cc(=O)n(C)c(=O)n1C"
  Value Type: "growth inhibition"
  Unit Of Measure: "%"
  Value Reported: 5.25
- Compound: "Clc1ccccc1-c1nc(-c2ccncc2)no1"
  Value Type: "growth inhibition"
  Unit Of Measure: "%"
  Value Reported: 57.6
- Compound: "CCCCOC1NC(=O)NC(=O)C1(F)C(=O)OCC (centres undefined)"
  Value Type: "growth inhibition"
  Unit Of Measure: "%"
  Value Reported: -9.55
- Compound: "O=[N+]([O-])C1C=Nc2ccccc2N=C1"
  Value Type: "growth inhibition"
  Unit Of Measure: "%"
  Value Reported: 5
- Compound: "CCC(=O)Oc1ccc(OCc2ccccc2)cc1"
  Value Type: "growth inhibition"
  Unit Of Measure: "%"
  Value Reported: -16.9
- Compound: "Cc1cc(=NO)cc(C)n1O"
  Value Type: "growth inhibition"
  Unit Of Measure: "%"
  Value Reported: 3.55
- Compound: "CCCCCCCOCC(=O)OC"
  Value Type: "growth inhibition"
  Unit Of Measure: "%"
  Value Reported: 10.2
- Compound: "Cc1ccccc1NC(=O)CC(=O)N1N=C(N(CCC#N)c2ccccc2Cl)CC1c1ccccc1 (centres undefined)"
  Value Type: "growth inhibition"
  Unit Of Measure: "%"
  Value Reported: -10.1
- Compound: "CCOC(=O)C(C=Nc1ccc(S(N)(=O)=O)cc1)C(=O)OCC"
  Value Type: "growth inhibition"
  Unit Of Measure: "%"
  Value Reported: -1.1
- Compound: "Cc1ccc(OCc2ccccc2)n[n+]1[O-]"
  Value Type: "growth inhibition"
  Unit Of Measure: "%"
  Value Reported: -9.7
- Compound: "CCOC(=O)C(CCCN=C(N)NC(=O)OCc1ccccc1)NC(=O)C(C(C)C)N1C(=O)c2ccccc2C1=O (centres undefined)"
  Value Type: "growth inhibition"
  Unit Of Measure: "%"
  Value Reported: 48.9
- Compound: "CN(C)CCNC(=O)c1cccc2c(Nc3ccc(S(N)(=O)=O)cc3)c3ccccc3nc12"
  Value Type: "growth inhibition"
  Unit Of Measure: "%"
  Value Reported: -23.6
- Compound: "COC(=O)/C=C1/Nc2c(N)nc(N)nc2NC1=O"
  Value Type: "growth inhibition"
  Unit Of Measure: "%"
  Value Reported: -0.9
- Compound: "OC(c1cccc(Cl)c1)C(Cl)Cl (centres undefined)"
  Value Type: "growth inhibition"
  Unit Of Measure: "%"
  Value Reported: -14.5
- Compound: "COc1cc(=O)cc2n(-c3cc(OC)c(O)c(OC)c3)c3ccccc3nc1-2"
  Value Type: "growth inhibition"
  Unit Of Measure: "%"
  Value Reported: -8.3
- Compound: "CN(C)CCNC(=O)c1ccc(C(=O)NCCN(C)C)c2c(C(=O)NCCN(C)C)ccc(C(=O)NCCN(C)C)c12"
  Value Type: "growth inhibition"
  Unit Of Measure: "%"
  Value Reported: 4.5
- Compound: "COc1ncc(/C=C2\\OC(=O)c3ccccc32)c(OC)n1"
  Value Type: "growth inhibition"
  Unit Of Measure: "%"
  Value Reported: 6.05
- Compound: "N=C(N)c1ccc(NC(=O)c2ccc(C(=O)Nc3ccc(C(=N)N)cc3)c(N)c2)cc1"
  Value Type: "growth inhibition"
  Unit Of Measure: "%"
  Value Reported: -1.95
- Compound: "COc1cc(C2c3cc4c(cc3OC(N3CCNCC3)C2C)OCO4)cc(OC)c1OC (centres undefined)"
  Value Type: "growth inhibition"
  Unit Of Measure: "%"
  Value Reported: -3.6
- Compound: "CC(C)CCc1ccc2ccc3cccc4ccc1c2c34"
  Value Type: "growth inhibition"
  Unit Of Measure: "%"
  Value Reported: -0.85
- Compound: "COCC(=O)c1ccccc1-c1ccccc1"
  Value Type: "growth inhibition"
  Unit Of Measure: "%"
  Value Reported: -11.2
- Compound: "Cc1cc(C)c(C(=O)O)c(C)c1Br"
  Value Type: "growth inhibition"
  Unit Of Measure: "%"
  Value Reported: 9.1
